Test system: SYO-1 tumor spheroids, viability % test/control
Assay details: Anticancer human tumor SYO-1 cell line growth inhibition;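 also: spheroids exposed to agents for 7 days before viability read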
Recorded conditions: curve of first compound; second compound 31.6 µM; spheroids with HUVEC and MSC
Description: Multicellular complex tumor spheroid response to DNA repair inhibitors in combination with DNA-damaging drugs This study explores the anticancer activities of DNA-damaging drugs and inhibitors of DNA damage repair, both as single agents and in combinations. […] Twenty-six patient-derived or established malignant cell lines were evaluated representing sarcoma, melanoma, small cell lung cancer (SCLC), non-small cell lung cancer (NSCLC), as well as bladder, ovarian and pancreatic cancers. […]
pIC50: −log10 of the molar value.
Provide the recorded pIC50 for the entries that follow.

For the compound CC1COCCN1c1cc(-c2ccnn2C)c2ccnc(-c3ccn[nH]3)c2n1 (centres undefined) + Cn1nnc2c(C(N)=O)ncn2c1=O , the measured pIC50 on SYO-1 tumor spheroids, viability % test/control was > 7.50

For the compound COc1cc(C)[nH]c(=O)c1CN1CCc2c(Cl)cc(C(OC)C3COC3)c(Cl)c2C1=O (centres undefined) + Cn1nnc2c(C(N)=O)ncn2c1=O , the measured pIC50 on SYO-1 tumor spheroids, viability % test/control was < 5.00

For the compound [2H]c1nc(C)nc([2H])c1-c1cc(NC[C@@H](C)c2cccc3c(C(=O)NC)ccnc23)ncn1 + Cn1nnc2c(C(N)=O)ncn2c1=O , the measured pIC50 on SYO-1 tumor spheroids, viability % test/control was < 5.00

For the compound Cn1ncnc1[C@H]1c2n[nH]c(=O)c3cc(F)cc(c23)N[C@@H]1c1ccc(F)cc1 + Cn1nnc2c(C(N)=O)ncn2c1=O , the measured pIC50 on SYO-1 tumor spheroids, viability % test/control was > 8.02
